# Assay method text: Single-point metabolic stability, mouse liver microsomes
# Type: in vitro ADME
# Assay context: male, CD1, mouse, liver microsomes, % Remaining after 30 min, Mouse, 1 μM, mouse liver microsomes 0.4 mg/ml, 30 min, 37 °C

Input smiles: COc1cc(CO)c(-c2ccc3c(c2O)[C@@H](C)N[C@H](C)C3)c2cccc(O)c12
remaining at 0.5 h, 1 μM: < 7%

###

# System: P. falciparum multidrug-resistant W2 strain
# Assay method text: SYBR Green I fluorescence assay, asexual parasite proliferation, W2 strain
# Assay type: cell-based
# Assay context: read-out: Inhibition of parasite proliferation IC50, W2; multidrug-resistant W2, 96 h drug pressure, mean ± SEM, n ≥ 2
pIC50: −log10 of the molar value.
Measurement type: pIC50

Molecule: COc1cc(C)c(-c2ccc(O)c3c2C[C@@H](C)N[C@@H]3C)c2cccc(O)c12 (single isomer, unassigned) [Dioncophylline C (2a), dioncophylline C]
Assay value: 6.95

Cited source: paper PMC7270141
